Just for reference, patent US11981658B2 is where these values come from.

study-system: EGFR L858R/T790M/C797S (Homo sapiens, UniProt P00533, C797S/L858R/T790M)
Sequence (P00533 25-1210 T790M/C797S/L858R): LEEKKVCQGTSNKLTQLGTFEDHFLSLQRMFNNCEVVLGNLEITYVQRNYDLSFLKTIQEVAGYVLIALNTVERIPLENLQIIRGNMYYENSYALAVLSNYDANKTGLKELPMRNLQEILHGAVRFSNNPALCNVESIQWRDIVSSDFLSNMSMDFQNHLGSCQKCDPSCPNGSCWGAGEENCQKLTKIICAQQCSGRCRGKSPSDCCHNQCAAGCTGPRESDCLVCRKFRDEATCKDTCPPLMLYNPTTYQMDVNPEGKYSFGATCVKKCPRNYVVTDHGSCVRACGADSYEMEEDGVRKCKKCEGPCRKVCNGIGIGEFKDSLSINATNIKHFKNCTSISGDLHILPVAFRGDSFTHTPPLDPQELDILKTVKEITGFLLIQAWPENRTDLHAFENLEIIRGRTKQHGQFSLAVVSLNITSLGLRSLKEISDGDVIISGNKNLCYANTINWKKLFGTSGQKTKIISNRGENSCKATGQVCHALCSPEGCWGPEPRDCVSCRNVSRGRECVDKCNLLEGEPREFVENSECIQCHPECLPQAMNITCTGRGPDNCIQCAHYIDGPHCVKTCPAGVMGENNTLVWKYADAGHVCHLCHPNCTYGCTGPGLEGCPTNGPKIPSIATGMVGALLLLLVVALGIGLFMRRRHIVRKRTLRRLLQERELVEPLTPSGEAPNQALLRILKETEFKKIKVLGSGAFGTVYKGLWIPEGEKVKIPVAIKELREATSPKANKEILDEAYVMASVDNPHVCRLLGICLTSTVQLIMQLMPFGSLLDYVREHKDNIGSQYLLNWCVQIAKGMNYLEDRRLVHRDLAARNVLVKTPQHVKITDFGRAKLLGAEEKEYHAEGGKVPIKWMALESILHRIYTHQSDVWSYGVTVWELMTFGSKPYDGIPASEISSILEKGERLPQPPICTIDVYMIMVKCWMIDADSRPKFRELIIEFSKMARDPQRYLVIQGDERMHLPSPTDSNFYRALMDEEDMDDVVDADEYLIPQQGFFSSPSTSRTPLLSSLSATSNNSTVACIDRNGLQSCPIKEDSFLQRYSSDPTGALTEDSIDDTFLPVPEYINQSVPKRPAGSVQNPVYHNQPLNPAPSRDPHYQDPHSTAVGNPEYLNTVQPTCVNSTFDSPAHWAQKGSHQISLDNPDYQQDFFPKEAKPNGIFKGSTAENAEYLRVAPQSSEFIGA
test-protocol: Biochemical EGFR kinase inhibition assay (Lance Ultra TR-FRET), triple mutant L858R/T790M/C797S
measurement-conditions: IC50 L858R/T790M/C797S (nM), 100 μM ATP
property: IC50 (nM)

Below, 8 molecules whose answers are already recorded.
molecule: Cn1ccc(C#Cc2cnc(Nc3ccnc(-c4cnn(S(=O)(=O)C5CC5)c4)n3)cc2N2CCC(NCCF)CC2)n1
display-unit: nM
IC50: 3.4
//
molecule: Cn1cc(C#Cc2cnc(Nc3ccnc(-c4cnn(S(=O)(=O)C5CC5)c4)n3)cc2N[C@H]2CCC[C@H](O)C2)cn1
display-unit: nM
IC50: 0.7
//
molecule: CC1(CO)CCN(c2cc(Nc3ccnc(-c4cnn(S(=O)(=O)C5CC5)c4)n3)ncc2C#CC2CCOC2)CC1 (centres unmarked)
display-unit: nM
IC50: 0.3
//
molecule: CC(=O)N1CCC(n2cc(C#Cc3cnc(Nc4ccnc(-c5cnn(S(=O)(=O)C6CC6)c5)n4)cc3N3CCC(F)CC3)cn2)CC1
display-unit: nM
IC50: 2.8
//
molecule: CN1CCC(C#Cc2cnc(Nc3ccnc(-c4cnn(S(=O)(=O)C5CC5)c4)n3)cc2N2CCC3(CCCO3)CC2)C1 (centres unmarked)
display-unit: nM
IC50: 0.3
//
molecule: O=C(N1CCC(C#Cc2cnc(Nc3ccnc(-c4cnn(S(=O)(=O)C5CC5)c4)n3)cc2NCC2CCC(CO)CC2)C1)C(F)(F)F (centres unmarked)
display-unit: nM
IC50: 35.9
//
molecule: Cn1cc(C#Cc2cnc(Nc3ccnc(-c4cnn(S(=O)(=O)C5CC5)c4)n3)cc2N2CCC(F)CC2)cn1
display-unit: nM
IC50: 2.2
//
molecule: CN(C)C(C)(C)CNC1CCN(c2cc(Nc3ccnc(-c4cnn(S(=O)(=O)C5CC5)c4)n3)ncc2C#Cc2cnn(C)c2)CC1
display-unit: nM
IC50: 0.9

[I] O=S(=O)(C1CC1)n1cc(-c2nccc(Nc3cc(N[C@H]4CC[C@](O)(CO)CC4)c(C#Cc4cnn(C(F)F)c4)cn3)n2)cn1
[II] CC1(CO)CCN(c2cc(Nc3ccnc(-c4cnn(S(=O)(=O)C5CC5)c4)n3)ncc2C#Cc2cn(CC(F)F)c3ccncc23)CC1
# query: argmin of IC50 over I and II Select an item and report its label. II
(II: 1.9 nM, I: 5.3 nM)

[P] CN(C)C[C@H]1CC[C@@H](Nc2cc(Nc3ccnc(-c4cnn(S(=O)(=O)C5CC5)c4)n3)ncc2C#Cc2cnn(CC3CC3)c2)CC1
[Q] CN(C)CCCn1cc(C#Cc2cnc(Nc3ccnc(-c4cnn(S(=O)(=O)C5CC5)c4)n3)cc2N2CCCC(CO)C2)cn1 (centres unmarked)
[R] CC1(CO)CCN(c2cc(Nc3ccnc(-c4cnn(S(=O)(=O)C5CC5)c4)n3)ncc2C#Cc2ccc(CN3CCOCC3)cc2)CC1
[S] CC1(C#Cc2cnc(Nc3ccnc(-c4cnn(S(=O)(=O)C5CC5)c4)n3)cc2N2CCC(C)(CO)CC2)CC1
Task field, ranking: reported IC50, descending order. Would you mind listing the labels in the order asked for? R, S, P, Q
(R: 4.4 nM, S: 1.6 nM, P: 1.1 nM, Q: 0.5 nM)

[1] Cn1ncc(C#Cc2cnc(Nc3ccnc(-c4cnn(S(=O)(=O)C5CC5)c4)n3)cc2N2CCC(O)CC2)c1C1CC1
[2] CN1CCN(Cc2ccc(C#Cc3cnc(Nc4ccnc(-c5cnn(S(=O)(=O)C6CC6)c5)n4)cc3N3CCC(C)(CO)CC3)cn2)CC1
Given the listed items, does 1 or 2 have the lesser reported IC50? Please reply using the label of the selected record. 2
(2: 0.5 nM, 1: 6.4 nM)

[1] O=S(=O)(C1CC1)n1cc(-c2nccc(Nc3cc(N4CCC5(CCCO5)CC4)c(C#Cc4cccnc4)cn3)n2)cn1
[2] CC1(CO)CCN(c2cc(Nc3ccnc(-c4cnn(S(=O)(=O)C5CC5)c4)n3)ncc2C#Cc2cccc(C(=O)N3CCOCC3)c2)CC1
// compare measured IC50, left 1 , right 2 , return larger Response format: the label of the selected entry. 1
(1: 7.1 nM, 2: 0.6 nM)

[P] Cn1cc(C#Cc2cnc(Nc3ccnc(-c4cnn(S(=O)(=O)C5CC5)c4)n3)cc2N2CCC(CO)CC2)c(C(F)(F)F)n1
[Q] CC(C)NC1CCN(c2cc(Nc3ccnc(-c4cnn(S(=O)(=O)C5CC5)c4)n3)ncc2C#Cc2cnn(C)c2)CC1
[R] O=S(=O)(C1CC1)n1cc(-c2nccc(Nc3cc(N[C@H]4CC[C@@H](CO)CC4)c(C#Cc4cnn(CCF)c4)cn3)n2)cn1
In this exercise, place the 3 molecules in ascending sequence of their recorded IC50. // format: requested-order list of labels R, Q, P

[I] O=S(=O)(C1CC1)n1cc(-c2nccc(Nc3cc(N[C@H]4CC[C@@H](O)CC4)c(C#CC4(O)CCCC4)cn3)n2)cn1
[II] CC1(CO)CCN(c2cc(Nc3ccnc(-c4cnn(S(=O)(=O)C5CC5)c4)n3)ncc2C#CC2CCN(C(=O)C(F)(F)F)C2)CC1 (centres unmarked)
[III] O=S(=O)(C1CC1)n1cc(-c2nccc(Nc3cc(N4CCC(O)CC4)c(C#Cc4csc(CF)n4)cn3)n2)cn1
Provide the items ranked by increasing IC50. I would appreciate it if you listed the labels in the requested order. I, II, III
(I: 0.8 nM, II: 1.7 nM, III: 8.9 nM)

###

study-system: EGFR wildtype (WT) (Homo sapiens)
Sequence (P00533 25-1210): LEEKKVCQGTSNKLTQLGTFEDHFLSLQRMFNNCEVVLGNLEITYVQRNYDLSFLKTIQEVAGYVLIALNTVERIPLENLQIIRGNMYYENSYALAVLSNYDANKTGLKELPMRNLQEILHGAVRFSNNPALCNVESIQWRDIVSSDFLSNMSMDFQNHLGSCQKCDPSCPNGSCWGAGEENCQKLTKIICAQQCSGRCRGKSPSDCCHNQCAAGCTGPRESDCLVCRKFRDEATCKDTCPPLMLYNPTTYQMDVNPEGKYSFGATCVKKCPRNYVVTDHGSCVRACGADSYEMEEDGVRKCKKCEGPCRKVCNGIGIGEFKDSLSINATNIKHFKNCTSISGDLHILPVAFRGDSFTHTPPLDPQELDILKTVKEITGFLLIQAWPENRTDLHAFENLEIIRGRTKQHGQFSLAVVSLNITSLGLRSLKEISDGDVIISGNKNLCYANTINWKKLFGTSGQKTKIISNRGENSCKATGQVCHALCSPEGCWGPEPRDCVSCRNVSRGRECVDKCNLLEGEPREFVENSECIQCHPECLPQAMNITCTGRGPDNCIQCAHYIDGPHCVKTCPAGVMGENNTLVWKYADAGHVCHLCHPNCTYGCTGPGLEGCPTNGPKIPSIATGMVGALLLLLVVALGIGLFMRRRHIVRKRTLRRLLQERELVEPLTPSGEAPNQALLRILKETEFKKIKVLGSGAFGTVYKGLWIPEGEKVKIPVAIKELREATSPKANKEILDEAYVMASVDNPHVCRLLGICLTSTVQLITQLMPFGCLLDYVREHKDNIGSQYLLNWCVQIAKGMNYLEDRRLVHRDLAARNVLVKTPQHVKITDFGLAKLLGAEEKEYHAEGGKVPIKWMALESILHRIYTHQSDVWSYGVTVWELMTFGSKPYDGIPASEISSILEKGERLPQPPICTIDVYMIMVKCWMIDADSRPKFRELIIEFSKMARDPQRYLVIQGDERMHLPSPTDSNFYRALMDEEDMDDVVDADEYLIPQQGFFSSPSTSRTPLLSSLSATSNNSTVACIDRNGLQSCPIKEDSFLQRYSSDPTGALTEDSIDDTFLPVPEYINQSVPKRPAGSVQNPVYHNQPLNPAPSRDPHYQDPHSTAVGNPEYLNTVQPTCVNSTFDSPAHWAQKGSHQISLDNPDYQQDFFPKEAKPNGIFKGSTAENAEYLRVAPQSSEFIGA
test-protocol: Biochemical EGFR kinase inhibition assay (Lance Ultra TR-FRET), wildtype
measurement-conditions: Km ATP; read-out: IC50 WT (nM), Km ATP
property: IC50 (nM)

Below are worked cases with known answers.
molecule: COC1(O)CCN(c2cc(Nc3ccnc(-c4cnn(S(=O)(=O)C5CC5)c4)n3)ncc2C#Cc2ncc(CN3CCOCC3)cn2)CC1 [Example 365]
IC50 / nM: 10.5

molecule: CC1(CO)CCN(c2cc(Nc3ccnc(-c4cnn(S(=O)(=O)C5CC5)c4)n3)ncc2C#CC2COC2)CC1 [Example 352]
IC50 / nM: 5.5

molecule: O=S(=O)(C1CC1)n1cc(-c2nccc(Nc3cc(N[C@H]4CC[C@@H](CO)CC4)c(C#Cc4cnn(C(F)(F)F)c4)cn3)n2)cn1 [Example 336]
IC50 / nM: 295

molecule: O=S(=O)(C1CC1)n1cc(-c2nccc(Nc3cc(N[C@H]4CC[C@@H](O)CC4)c(C#Cc4cnn(CC(F)(F)F)c4)cn3)n2)cn1 [Example 339]
IC50 / nM: 18.2

molecule: CN1CCN(Cc2ccc(C#Cc3cnc(Nc4ccnc(-c5cnn(S(=O)(=O)C6CC6)c5)n4)cc3N[C@H]3CC[C@@H](CO)CC3)cc2)CC1 [Example 360]
IC50 / nM: 3.8

[a] COC1(O)CCN(c2cc(Nc3ccnc(-c4cnn(S(=O)(=O)C5CC5)c4)n3)ncc2C#Cc2ccc(CN3CCN(C)CC3)cc2)CC1 [Example 369]
[b] O=S(=O)(C1CC1)n1cc(-c2nccc(Nc3cc(NC4CCC(O)CC4)c(C#CC4(O)CCOC4)cn3)n2)cn1 (stereo not shown) [Example 356]
# min-compare on IC50 between a and b Record your answer as the label of the chosen record. a
(a: 3.1 nM, b: 20.1 nM)

[1] CC1(CO)CCN(c2cc(Nc3ccnc(-c4cnn(S(=O)(=O)C5CC5)c4)n3)ncc2C#CC2CCO[C@H]2C(F)(F)F)CC1 (stereo partly shown) [Example 421]
[2] CN1CCN(Cc2ccc(C#Cc3cnc(Nc4ccnc(-c5cnn(S(=O)(=O)C6CC6)c5)n4)cc3N3CCC(C)(O)CC3)cc2)CC1 [Example 368]
[3] C[C@]1(O)CC[C@@H](Nc2cc(Nc3ccnc(-c4cnn(S(=O)(=O)C5CC5)c4)n3)ncc2C#Cc2cnn(CC(F)(F)F)c2)CC1 [Example 344]
[4] CC1(CO)CCN(c2cc(Nc3ccnc(-c4cnn(S(=O)(=O)C5CC5)c4)n3)ncc2C#CC2CCN(S(C)(=O)=O)C2)CC1 (stereo not shown) [Example 401]
[5] COC1(O)CCN(c2cc(Nc3ccnc(-c4cnn(S(=O)(=O)C5CC5)c4)n3)ncc2C#CC2CCN(C)C2)CC1 (stereo not shown) [Example 371]
Hi! Can you put these in order of IC50, lowest number first? The response must list the labels following the requested ordering. 2, 4, 5, 1, 3

[P] O=S(=O)(C1CC1)n1cc(-c2nccc(Nc3cc(N[C@H]4CC[C@@H](CO)CC4)c(C#Cc4cnn(CC(F)(F)F)c4)cn3)n2)cn1 [Example 340]
[Q] CC1(CO)CCN(c2cc(Nc3ccnc(-c4cnn(S(=O)(=O)C5CC5)c4)n3)ncc2C#CC2CCN(S(C)(=O)=O)CC2)CC1 [Example 389]
[R] O=S(=O)(C1CC1)n1cc(-c2nccc(Nc3cc(N4CCC[C@H](O)C4)c(C#Cc4cnn(C(F)(F)F)c4)cn3)n2)cn1 [Example 439]
Hello, I need these entries ordered by IC50, highest reading first. Thanks! Could you list the labels in the order requested? R, P, Q
(R: 122 nM, P: 26 nM, Q: 4.6 nM)

[a] O=S(=O)(C1CC1)N1CCC(C#Cc2cnc(Nc3ccnc(-c4cnn(S(=O)(=O)C5CC5)c4)n3)cc2N[C@H]2CC[C@@H](O)CC2)CC1 [Example 391]
[b] CS(=O)(=O)N1CCC(C#Cc2cnc(Nc3ccnc(-c4cnn(S(=O)(=O)C5CC5)c4)n3)cc2NC[C@H]2CC[C@H](CO)CC2)CC1 [Example 388]
[c] O=S(=O)(C1CC1)n1cc(-c2nccc(Nc3cc(NC4CCC(CO)CC4)c(C#CC4CCOC4C(F)(F)F)cn3)n2)cn1 (stereo not shown) [Example 416]
Would you mind ranking these molecules by ascending IC50? Thanks in advance for listing the labels in the requested order. a, c, b
(a: 25.6 nM, c: 84.5 nM, b: 312 nM)

[P] CC1(C#Cc2cnc(Nc3ccnc(-c4cnn(S(=O)(=O)C5CC5)c4)n3)cc2N[C@H]2CC[C@@H](O)CC2)CC1 [Example 359]
[Q] O=S(=O)(C1CC1)n1cc(-c2nccc(Nc3cc(N4C[C@H]5C[C@@]5(CO)C4)c(C#Cc4cnn(C(F)(F)F)c4)cn3)n2)cn1 [Example 333]
Select one. Lower IC50: P or Q // output: label of the selected item P
(P: 26.7 nM, Q: 240 nM)

[A] CC1(CO)CCN(c2cc(Nc3ccnc(-c4cnn(S(=O)(=O)C5CC5)c4)n3)ncc2C#CC2CCS(=O)(=O)C2)CC1 (stereo not shown) [Example 437]
[B] O=S1(=O)CCC(C#Cc2cnc(Nc3ccnc(-c4cnn(S(=O)(=O)C5CC5)c4)n3)cc2NC2CCC(CO)CC2)C1 (stereo not shown) [Example 428]
When A and B are compared, which has the higher number for IC50? Return value: the label identifying the chosen record. B
(B: 18.6 nM, A: 3.7 nM)
